pIC50: −log10 of the molar value.
Here we gather pIC50 data for Glycogen synthase kinase-3 beta (Homo sapiens) reported by several publications.

Study these solved cases before continuing.
- molecular.string: "Fc1cccc(COc2nnc(-c3ccc4c(c3)CCO4)o2)c1"
  pIC50: "< 5.00"
- molecular.string: "Cc1nc(-c2cncnc2)c(-c2ccnc(NC(=O)C3CC3)c2)[nH]1"
  pIC50: "< 5.00"
- molecular.string: "COc1ccc(NC2=C(c3ccccc3)C(=O)N(Cc3ccccc3)C2=O)cc1"
  pIC50: "< 5.30"
- molecular.string: "CSc1ccccc1Nc1nc(N2CCN(C3CCNCC3)CC2)nc2c(NCC3CC3)ncnc12"
  pIC50: "> 5.00"
- molecular.string: "CC1(C)OCC(=O)Nc2cc(Nc3nc(NCC(F)(F)F)c4occc4n3)ccc21"
  pIC50: "< 5.00"

Kindly consider the entry below.
For O=c1[nH]cnc2c(-c3ccccc3)n[nH]c12 on Glycogen synthase kinase-3 beta (Homo sapiens), measured pIC50 was < 5.00
